Just for reference, paper PMC6254286 is where these values come from.

- test: Cytotoxicity against L6 cells (Alamar blue)
- condition_description: rat, L6 cells (rat skeletal myoblasts)
- Procedure: Trypanosoma brucei rhodesiense and cytotoxicity against L6 cells. […] The plate was then read in a Spectramax Gemini XS microplate fluorometer (Molecular Devices Corporation, Sunnyvale, CA, USA) using an excitation wavelength of 536 nm and emission wavelength of 588 nm. Fluorescence development was measured and expressed as percentage of the control. Data were transferred into the graphic programme Softmax Pro (Molecular Devices) which calculated IC50 values. […]
attribute_measured: IC50 at 72 h (µM)
Return type: number; implicit unit µM.

Reference set (3 entries):
>>> recorded_measurement("C=C1C(=O)OC2CC(C)C3C(O)CC(O)C3(C)CC12 (stereo not shown)")
31.9
>>> recorded_measurement("C=C1CC(O)CC2(C)CC3OC(=O)C(C)C3CC12 (stereo not shown)")
187
>>> recorded_measurement("C=C1C(=O)OC2CC(C)C3(O)C=C(C(C)=O)C4(CC3CC12)C(=O)OC1CC(C)C2(C=CC(C)=O)OC2CC14 (stereo not shown)")
13.3

Next up:
Item C=C1C(=O)OC2CC(C)C3C(OC(C)=O)CC(O)C3(COC(C)=O)CC12 (stereo not shown) has what recorded IC50 at 72 h?
21.6

----------
- Test system: Trypanosoma brucei rhodesiense STIB 900
- test: In vitro activity against T. brucei rhodesiense bloodstream forms (Alamar blue)
- Type: cell-based
- condition_description: Trypanosoma brucei, 72 h, bloodstream forms STIB 900, 72 h; mean of two independent measurements; read-out: IC50 T. brucei rhodes. (Tbr)
attribute_measured: IC50

>>> recorded_measurement("C=C1C(=O)OC2CC3(C)C(CCC(C)=O)C3CC12 (stereo not drawn) [Compound 20]")
"15.9 µM"
>>> recorded_measurement("C=C1C(=O)OC2C=C(C)C(O)CC3OC3(COC(C)=O)CC(OC(=O)C(C)=CC)C12 (stereo not drawn) [Compound 40]")
"0.698 µM"
>>> recorded_measurement("C=C1C(=O)OC2CC(C)C3C=CC(=O)C3(C)C(OC(C)=O)C12 (stereo not drawn) [Compound 2]")
"< 0.1 µM"
>>> recorded_measurement("C=C1C(=O)OC2C=C(C)CCC3OC3(CO)CC(OC(=O)C3(C)OC3C)C12 (stereo not drawn) [Compound 36]")
"14.3 µM"
>>> recorded_measurement("CC(=O)OC1C2C(CC(C)C3C=CC(=O)C31C)OC(=O)C2C (stereo not drawn) [Compound 6]")
"1.42 µM"
>>> recorded_measurement("C=C1C(=O)OC2C=C(C)CCC3OC3(COC(C)=O)CC(OC(=O)C3(C)OC3C)C12 (stereo not drawn) [Compound 37]")
"0.478 µM"
>>> recorded_measurement("C=C1C(=O)OC2CC3(C)CC(=O)CC(C)C3=CC12 (stereo not drawn) [Compound 30]")
"1.6 µM"
>>> recorded_measurement("C=C1C(=O)OC2CC3(C)CCCC(=C)C3CC12 (stereo not drawn) [Compound 25]")
"23.6 µM"

Next up:
Item CC1CC2OC(=O)C(C)C2C(O)C2(C)C(=O)C=CC12 (stereo not drawn) [Compound 5] has what recorded IC50?
0.686 µM

----------
Listed here are compounds together with their documented IC50 at 72 h.
- test: Cytotoxicity against L6 cells (Alamar blue)
- condition_description: rat, L6 cells (rat skeletal myoblasts)
Return type: number; implicit unit µM.

>>> recorded_measurement("C=C1C(=O)OC2CC3(C)CC(OC(C)=O)CC(=C)C3CC12 (centres unmarked)")
8.91
>>> recorded_measurement("C=C(C(=O)OC1CC(C)=CCCC(CO)=CC2OC(=O)C(=C)C21)C(O)CO (centres unmarked)")
10.2

Item C=C1C(=O)OC2C=C(C)C(O)CC3OC3(C)CC(OC(=O)C(C)=CC)C12 (centres unmarked) has what recorded IC50 at 72 h?
13

// same read-out, input: C=C1C(=O)OC2CC(C)C3C(OC(C)=O)CC(OC(C)=O)C3(C)CC12 (centres unmarked)
8.43
